- ASSAYED_TARGET: WIZ protein (HiBit-WIZ fusion protein) (Homo sapiens, UniProt O95785+Q96SW2)
- Construct: expressed in transfected cells
- Sequence (O95785 whole entry, the tested form may be a part): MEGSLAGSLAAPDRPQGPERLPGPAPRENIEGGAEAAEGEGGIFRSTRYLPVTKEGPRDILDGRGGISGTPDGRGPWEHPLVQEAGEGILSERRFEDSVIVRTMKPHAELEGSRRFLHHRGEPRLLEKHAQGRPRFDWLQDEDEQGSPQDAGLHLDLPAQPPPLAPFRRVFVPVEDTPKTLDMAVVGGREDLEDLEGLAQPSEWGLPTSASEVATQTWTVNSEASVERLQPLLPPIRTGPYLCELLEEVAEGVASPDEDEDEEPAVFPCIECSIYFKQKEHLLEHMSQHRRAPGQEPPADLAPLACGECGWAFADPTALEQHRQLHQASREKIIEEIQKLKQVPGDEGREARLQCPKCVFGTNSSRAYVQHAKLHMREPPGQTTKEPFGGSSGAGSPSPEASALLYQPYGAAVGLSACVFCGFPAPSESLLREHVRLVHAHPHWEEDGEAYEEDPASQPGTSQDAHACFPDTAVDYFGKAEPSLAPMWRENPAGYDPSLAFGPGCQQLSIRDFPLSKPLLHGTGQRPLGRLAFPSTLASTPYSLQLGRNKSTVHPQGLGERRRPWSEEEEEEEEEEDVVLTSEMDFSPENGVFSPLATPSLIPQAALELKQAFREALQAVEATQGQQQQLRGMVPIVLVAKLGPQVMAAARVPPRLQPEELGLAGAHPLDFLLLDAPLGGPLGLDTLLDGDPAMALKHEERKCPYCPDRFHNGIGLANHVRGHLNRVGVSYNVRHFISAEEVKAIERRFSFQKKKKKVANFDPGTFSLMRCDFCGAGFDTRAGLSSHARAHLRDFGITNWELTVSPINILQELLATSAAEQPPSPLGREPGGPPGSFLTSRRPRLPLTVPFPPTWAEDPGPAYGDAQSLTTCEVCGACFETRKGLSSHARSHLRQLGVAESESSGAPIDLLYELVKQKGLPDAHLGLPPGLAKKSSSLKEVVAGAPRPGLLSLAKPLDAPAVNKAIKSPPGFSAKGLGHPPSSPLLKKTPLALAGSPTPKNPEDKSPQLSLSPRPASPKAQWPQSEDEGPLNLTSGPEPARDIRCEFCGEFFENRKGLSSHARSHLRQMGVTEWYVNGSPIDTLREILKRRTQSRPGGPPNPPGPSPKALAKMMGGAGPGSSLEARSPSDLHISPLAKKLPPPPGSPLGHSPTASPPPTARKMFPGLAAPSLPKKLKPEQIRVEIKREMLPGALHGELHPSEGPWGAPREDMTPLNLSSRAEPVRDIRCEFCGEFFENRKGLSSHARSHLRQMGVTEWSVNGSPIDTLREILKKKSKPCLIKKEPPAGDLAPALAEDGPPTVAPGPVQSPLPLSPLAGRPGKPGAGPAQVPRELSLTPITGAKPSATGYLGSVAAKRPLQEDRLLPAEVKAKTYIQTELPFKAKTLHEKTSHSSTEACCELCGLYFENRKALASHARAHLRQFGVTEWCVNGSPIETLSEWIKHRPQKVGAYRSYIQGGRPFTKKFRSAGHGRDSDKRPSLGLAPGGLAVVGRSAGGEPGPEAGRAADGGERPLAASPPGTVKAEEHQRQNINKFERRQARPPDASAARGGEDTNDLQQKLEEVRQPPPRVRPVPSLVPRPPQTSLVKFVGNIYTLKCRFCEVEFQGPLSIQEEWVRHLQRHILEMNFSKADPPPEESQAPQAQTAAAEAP
- Sequence (Q96SW2 whole entry, the tested form may be a part): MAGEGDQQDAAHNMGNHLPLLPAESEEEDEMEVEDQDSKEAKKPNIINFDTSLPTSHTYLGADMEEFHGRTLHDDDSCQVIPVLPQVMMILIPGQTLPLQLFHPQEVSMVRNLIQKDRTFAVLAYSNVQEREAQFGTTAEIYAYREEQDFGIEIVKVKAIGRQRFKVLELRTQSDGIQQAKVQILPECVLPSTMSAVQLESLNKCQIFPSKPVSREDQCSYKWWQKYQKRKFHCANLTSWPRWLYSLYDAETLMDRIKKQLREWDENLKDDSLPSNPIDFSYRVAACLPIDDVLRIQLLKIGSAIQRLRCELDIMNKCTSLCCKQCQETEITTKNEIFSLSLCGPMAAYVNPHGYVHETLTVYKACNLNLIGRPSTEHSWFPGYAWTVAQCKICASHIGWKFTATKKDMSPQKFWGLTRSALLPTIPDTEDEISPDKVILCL
- Sequence (Q16531 whole entry partner, the tested form may be a part): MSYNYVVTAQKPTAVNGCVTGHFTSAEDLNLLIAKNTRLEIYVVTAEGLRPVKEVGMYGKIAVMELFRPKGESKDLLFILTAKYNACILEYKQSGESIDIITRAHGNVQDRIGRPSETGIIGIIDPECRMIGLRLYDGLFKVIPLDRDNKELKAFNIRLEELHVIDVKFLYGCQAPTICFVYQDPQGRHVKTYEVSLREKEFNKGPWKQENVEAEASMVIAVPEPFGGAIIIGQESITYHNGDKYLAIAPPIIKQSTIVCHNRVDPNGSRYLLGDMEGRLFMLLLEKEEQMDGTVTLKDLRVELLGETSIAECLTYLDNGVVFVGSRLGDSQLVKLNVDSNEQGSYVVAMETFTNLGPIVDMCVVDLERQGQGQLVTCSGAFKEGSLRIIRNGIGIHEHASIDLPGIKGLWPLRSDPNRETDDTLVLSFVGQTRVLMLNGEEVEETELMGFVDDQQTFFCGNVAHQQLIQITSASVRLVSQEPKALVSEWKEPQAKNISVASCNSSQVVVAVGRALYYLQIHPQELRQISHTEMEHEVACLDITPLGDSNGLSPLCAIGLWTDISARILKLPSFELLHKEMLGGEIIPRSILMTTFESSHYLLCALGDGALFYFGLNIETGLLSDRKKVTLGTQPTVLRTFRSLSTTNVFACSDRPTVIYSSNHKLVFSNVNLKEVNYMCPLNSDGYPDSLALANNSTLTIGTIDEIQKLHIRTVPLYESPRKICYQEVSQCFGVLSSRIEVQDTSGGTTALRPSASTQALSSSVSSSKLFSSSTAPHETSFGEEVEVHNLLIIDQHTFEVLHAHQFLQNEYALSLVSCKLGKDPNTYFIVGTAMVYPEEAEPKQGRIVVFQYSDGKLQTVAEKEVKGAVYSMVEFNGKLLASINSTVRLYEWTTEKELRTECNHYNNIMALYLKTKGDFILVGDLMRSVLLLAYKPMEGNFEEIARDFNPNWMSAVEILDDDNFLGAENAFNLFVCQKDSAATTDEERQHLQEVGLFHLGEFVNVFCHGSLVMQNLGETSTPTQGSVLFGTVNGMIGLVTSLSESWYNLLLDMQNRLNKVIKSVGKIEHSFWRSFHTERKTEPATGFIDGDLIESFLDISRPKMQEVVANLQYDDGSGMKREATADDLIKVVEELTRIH
- ASSAY_DETAILS: Quantification of WIZ protein levels in HiBit tag fusion protein assay (WIZ HiBit assay in 293T cells)
- Format: cell-based
- PARTICULARS: HEK-293T, DMSO-normalized, curve-fitted percentage of WIZ-HiBit remaining at 25 uM; 293T cells; read-out: WIZ Amax
- Description: The HiBit system from Promega was used to develop high-throughput and quantitative assays to measure changes in WIZ protein levels in response to compounds. […] The complementary fragment of Nanoluciferase (known as LgBit, from Promega), was added to the HiBit tag to form an active Nanoluciferase enzyme whose activity can be precisely measured. In this way, the levels of a fusion protein with the HiBit tag can be quantified in cell lysates. […]
MEASURED_ENDPOINT: remaining activity at 25 µM (%)
Supply the numeric figure in %, leaving out any unit text.

Solved cases (3 shown):
smiles_code=C[C@H]1CN(Cc2ccn3ncc(N4CCC(=O)NC4=O)c3c2)CCN1CC1CCC1 measured_endpoint="remaining activity at 25 µM" value_reported=19
smiles_code=C[C@H]1C[C@H](Cc2ccn3ncc(-n4ccc(=O)[nH]c4=O)c3c2)CCN1C(=O)C1CC1 measured_endpoint="remaining activity at 25 µM" value_reported=18
smiles_code=O=C1CCN(c2cnn3ccc(CC4(F)CCN(Cc5ccccc5)CC4)cc23)C(=O)N1 measured_endpoint="remaining activity at 25 µM" value_reported=65

Entry O=C1CCN(c2cnn3ccc(CN4CCN5CCC[C@H]5C4)cc23)C(=O)N1 , tested on WIZ protein (HiBit-WIZ fusion protein) (Homo sapiens, UniProt O95785+Q96SW2), has a reported remaining activity at 25 µM of 32

* * *

- ASSAYED_TARGET: WIZ protein (HiBit-WIZ fusion protein) (Homo sapiens, UniProt O95785+Q96SW2)
- Construct: expressed in transfected cells
- ASSAY_DETAILS: Quantification of WIZ protein levels in HiBit tag fusion protein assay (WIZ HiBit assay in 293T cells)
- Assay type: cell-based
- PARTICULARS: WIZ HiBit assay in 293T cells; 10-point, 5-fold dose response, highest concentration 25 μM, about 18 hours; read-out: WIZ AC50
Labelling field: enter Y if recorded DC50 is less than 70 nM. Enter N if it equals or exceeds that cut-off.

smiles_code=C[C@H]1CN(Cc2ccn3ncc(N4CCC(=O)NC4=O)c3c2)CCN1CC1CCOCC1 cat=Y

Determine whether this compound shows DC50 lower than 70 nM (ties excluded): Cc1c(F)cccc1CN1CCC(Cc2ccn3ncc(N4CCC(=O)NC4=O)c3c2)CC1 Y

Find out if reported DC50 for CC(C)N1CCC(Cc2ccn3ncc(N4CCC(=O)NC4=O)c3c2)CC1 is less than 70 nM N

# strict comparison: is reported DC50 < 70 nM? input = C[C@@H]1CN(Cc2ccn3ncc(N4CCC(=O)NC4=O)c3c2)CCN1CC1CCOCC1 N

Dear colleague, could you confirm whether DC50 of O=C1CCN(c2cnn3ccc(CN4CCN(Cc5ccccc5)CC4)cc23)C(=O)N1 falls below 70 nM? Thanks. N

* * *

- ASSAYED_TARGET: WIZ protein (HiBit-WIZ fusion protein) (Homo sapiens, UniProt O95785+Q96SW2)
- Construct: expressed in transfected cells
- ASSAY_DETAILS: Quantification of WIZ protein levels in HiBit tag fusion protein assay (WIZ HiBit assay in 293T cells)
- Assay type: cell-based
- PARTICULARS: HEK-293T, 100 − Amax, at 25 uM; 293T cells; read-out: % degradation of WIZ (100 − Amax)
MEASURED_ENDPOINT: Dmax at 25 µM (%)
Your answer should be a plain number; it is taken to be in %.

Example cases with answers are listed next.
compound=C[C@H]1CN(Cc2ccn3ncc(N4CCC(=O)NC4=O)c3c2)CCN1C1CCCCC1 unit_symbol=% value_reported=87
compound=C[C@H]1CN(Cc2ccn3ncc(N4CCC(=O)NC4=O)c3c2)CCN1C1COC1 unit_symbol=% value_reported=76
compound=O=C1CCN(c2cnn3ccc(CN4CCN5CCC[C@@H]5C4)cc23)C(=O)N1 unit_symbol=% value_reported=63
compound=CS(=O)(=O)N1CCC(Cc2ccn3ncc(N4CCC(=O)NC4=O)c3c2)CC1 unit_symbol=% value_reported=77
compound="C[C@@H]1CC(CN2CCN(Cc3ccn4ncc(N5CCC(=O)NC5=O)c4c3)CC2)C[C@H](C)O1 (some centres unmarked)" unit_symbol=% value_reported=86
compound="C[C@@H]1CC(CN2CCC(Cc3ccn4ncc(N5CCC(=O)NC5=O)c4c3)CC2)C[C@H](C)O1 (some centres unmarked)" unit_symbol=% value_reported=88

get_value(item= CC(C)(C1CCOCC1)N1CCC(Cc2ccn3ncc(N4CCC(=O)NC4=O)c3c2)CC1 , readout=Dmax at 25 µM) returns 86

Notebook: CC(C)(O)CN1CCC(Cc2ccn3ncc(N4CCC(=O)NC4=O)c3c2)CC1 , Dmax at 25 µM read as 68

The recorded Dmax at 25 µM for entry O=C1CCN(c2cnn3ccc(CC4CCN(Cc5cc(F)cc(F)c5)CC4)cc23)C(=O)N1 equals 70

response.value for C[C@H]1C[C@H](Cc2ccn3ncc(N4CCC(=O)NC4=O)c3c2)CCN1C[C@@H]1CCC(F)(F)C1 (field: Dmax at 25 µM) = 84

So for C[C@H]1CN(Cc2ccn3ncc(N4CCC(=O)NC4=O)c3c2)CCN1C[C@@H]1CCC(F)(F)C1 , the logged Dmax at 25 µM turned out to be 78

// field: Dmax at 25 µM; key: CO[C@H]1C[C@H](CN2CC[C@@H](Cc3ccn4ncc(N5CCC(=O)NC5=O)c4c3)C[C@@H]2C)C1 ; value = 84

Per the record, CC(C)CN1CC[C@@H](Cc2ccn3ncc(N4CCC(=O)NC4=O)c3c2)C[C@@H]1C has Dmax at 25 µM of 84

GET /value?item= CC(C)CN1[C@@H]2CC[C@H]1CC(Cc1ccn3ncc(N4CCC(=O)NC4=O)c3c1)C2 (some centres unmarked) &field=Dmax at 25 µM returns 61

* * *

Listed compounds paired with reported remaining activity at 25 µM
- ASSAYED_TARGET: WIZ protein (HiBit-WIZ fusion protein) (Homo sapiens, UniProt O95785+Q96SW2)
- Construct: expressed in transfected cells
- ASSAY_DETAILS: Quantification of WIZ protein levels in HiBit tag fusion protein assay (WIZ HiBit assay in 293T cells)
- Type: cell-based
- PARTICULARS: HEK-293T, DMSO-normalized, curve-fitted percentage of WIZ-HiBit remaining at 25 uM; 293T cells; read-out: WIZ Amax
Provide the reading as a plain figure in %.

Worked cases, remaining activity at 25 µM given:
compound="CC(C)(C)OC(=O)N1CCCC(Cc2ccn3ncc(N4CCC(=O)NC4=O)c3c2)CC1 (stereo not drawn)" value_reported=43
compound=CC(C)(CC1CCOCC1)N1CCC(Cc2ccn3ncc(N4CCC(=O)NC4=O)c3c2)CC1 value_reported=23
compound=C[C@H]1CN(Cc2ccn3ncc(N4CCC(=O)NC4=O)c3c2)CCN1CC1CCOCC1 value_reported=15

The compound C[C@H]1C[C@@H](Cc2ccn3ncc(N4CCC(=O)NC4=O)c3c2)CCN1CC1CCOCC1 on WIZ protein (HiBit-WIZ fusion protein) (Homo sapiens, UniProt O95785+Q96SW2): remaining activity at 25 µM was 11

Record Cc1cn(-c2cnn3ccc(C[C@@H]4CCN(CC(C)C)[C@@H](C)C4)cc23)c(=O)[nH]c1=O / WIZ protein (HiBit-WIZ fusion protein) (Homo sapiens, UniProt O95785+Q96SW2), remaining activity at 25 µM recorded as 11

Here O=C1CCN(c2cnn3ccc(CC4CCN(Cc5ccc(F)cc5)CC4)cc23)C(=O)N1 was tested on WIZ protein (HiBit-WIZ fusion protein) (Homo sapiens, UniProt O95785+Q96SW2), and its remaining activity at 25 µM came to 23

Fill in: WIZ protein (HiBit-WIZ fusion protein) (Homo sapiens, UniProt O95785+Q96SW2) remaining activity at 25 µM for O=C1CCN(c2cnn3ccc(CC4CCN(S(=O)(=O)C5CC5)CC4)cc23)C(=O)N1 = 23

# remaining activity at 25 µM measured on WIZ protein (HiBit-WIZ fusion protein) (Homo sapiens, UniProt O95785+Q96SW2) for item O=C1CCN(c2cnn3ccc(CC4CCN(CC(F)(F)C(F)F)CC4)cc23)C(=O)N1 = 26

# O=C1CCN(c2cnn3ccc(CN4CCN(CC5CCC(F)(F)CC5)CC4)cc23)C(=O)N1 with WIZ protein (HiBit-WIZ fusion protein) (Homo sapiens, UniProt O95785+Q96SW2): remaining activity at 25 µM is 17

Tested on WIZ protein (HiBit-WIZ fusion protein) (Homo sapiens, UniProt O95785+Q96SW2): CC(C)CN1CC[C@H](Cc2ccn3ncc(N4CCC(=O)NC4=O)c3c2)C[C@@H]1C . Observed remaining activity at 25 µM: 13

Simply: CO[C@H]1CC[C@@H](CN2CCN(Cc3ccn4ncc(N5CCC(=O)NC5=O)c4c3)C[C@@H]2C)CC1 , WIZ protein (HiBit-WIZ fusion protein) (Homo sapiens, UniProt O95785+Q96SW2), remaining activity at 25 µM = 14

Note to self: remaining activity at 25 µM of O=C1CCN(c2cnn3ccc(CN4CCN(CC5CC5)CC4)cc23)C(=O)N1 with WIZ protein (HiBit-WIZ fusion protein) (Homo sapiens, UniProt O95785+Q96SW2) was 29
